Target: ACE (angiotensin converting enzyme) (Oryctolagus cuniculus, UniProt P12822)
Sequence (P12822 34-1310): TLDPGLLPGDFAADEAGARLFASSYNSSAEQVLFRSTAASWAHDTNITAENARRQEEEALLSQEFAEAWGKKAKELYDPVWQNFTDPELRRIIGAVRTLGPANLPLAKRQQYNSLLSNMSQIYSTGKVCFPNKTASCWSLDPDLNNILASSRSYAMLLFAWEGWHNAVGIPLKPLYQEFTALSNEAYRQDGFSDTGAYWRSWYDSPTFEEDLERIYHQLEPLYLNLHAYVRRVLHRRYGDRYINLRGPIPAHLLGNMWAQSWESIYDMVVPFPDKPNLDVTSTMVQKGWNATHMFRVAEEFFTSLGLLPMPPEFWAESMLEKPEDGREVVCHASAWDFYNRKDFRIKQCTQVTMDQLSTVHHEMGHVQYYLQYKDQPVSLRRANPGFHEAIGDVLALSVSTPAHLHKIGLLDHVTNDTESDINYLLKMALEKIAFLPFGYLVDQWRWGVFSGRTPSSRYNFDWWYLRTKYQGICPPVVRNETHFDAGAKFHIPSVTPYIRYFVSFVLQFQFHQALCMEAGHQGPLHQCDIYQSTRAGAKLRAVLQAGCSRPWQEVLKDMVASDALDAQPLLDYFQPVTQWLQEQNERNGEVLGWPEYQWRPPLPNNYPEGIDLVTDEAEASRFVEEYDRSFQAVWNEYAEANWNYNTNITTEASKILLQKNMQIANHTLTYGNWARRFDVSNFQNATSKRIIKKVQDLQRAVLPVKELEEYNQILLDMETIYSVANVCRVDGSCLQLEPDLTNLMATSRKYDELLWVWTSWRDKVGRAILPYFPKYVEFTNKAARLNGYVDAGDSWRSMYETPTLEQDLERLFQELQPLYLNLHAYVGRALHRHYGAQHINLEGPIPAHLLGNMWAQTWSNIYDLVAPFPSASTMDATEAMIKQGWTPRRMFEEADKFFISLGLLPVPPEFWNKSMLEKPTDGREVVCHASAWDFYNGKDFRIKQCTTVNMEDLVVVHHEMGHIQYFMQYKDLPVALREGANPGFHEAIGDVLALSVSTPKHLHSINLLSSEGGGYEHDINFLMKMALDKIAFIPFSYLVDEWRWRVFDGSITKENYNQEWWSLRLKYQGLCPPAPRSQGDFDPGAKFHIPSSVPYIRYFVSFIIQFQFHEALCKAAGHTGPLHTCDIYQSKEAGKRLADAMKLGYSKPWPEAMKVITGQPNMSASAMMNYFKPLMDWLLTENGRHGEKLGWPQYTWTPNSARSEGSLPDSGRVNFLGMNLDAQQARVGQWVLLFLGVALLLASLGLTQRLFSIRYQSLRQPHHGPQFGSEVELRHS
pIC50: −log10 of the molar value.
endpointName: pIC50

[1] O=C(N[C@@H](Cc1cscn1)C(=O)O)C(CS)Cc1ccccc1 (some centres unmarked)
[2] O=C(N[C@@H](Cc1ccccn1)C(=O)O)C(CS)Cc1ccccc1 (some centres unmarked)
Q: Which value of pIC50 is smaller, the one for 1 or the one for 2 ? Please respond with the label that marks your chosen entry.
Result: 2
(2: 7.64, 1: 7.92)

* * *

Molecular target: NEP (neutral endopeptidase enzyme) (Rattus norvegicus)
Sequence (P07861 whole entry): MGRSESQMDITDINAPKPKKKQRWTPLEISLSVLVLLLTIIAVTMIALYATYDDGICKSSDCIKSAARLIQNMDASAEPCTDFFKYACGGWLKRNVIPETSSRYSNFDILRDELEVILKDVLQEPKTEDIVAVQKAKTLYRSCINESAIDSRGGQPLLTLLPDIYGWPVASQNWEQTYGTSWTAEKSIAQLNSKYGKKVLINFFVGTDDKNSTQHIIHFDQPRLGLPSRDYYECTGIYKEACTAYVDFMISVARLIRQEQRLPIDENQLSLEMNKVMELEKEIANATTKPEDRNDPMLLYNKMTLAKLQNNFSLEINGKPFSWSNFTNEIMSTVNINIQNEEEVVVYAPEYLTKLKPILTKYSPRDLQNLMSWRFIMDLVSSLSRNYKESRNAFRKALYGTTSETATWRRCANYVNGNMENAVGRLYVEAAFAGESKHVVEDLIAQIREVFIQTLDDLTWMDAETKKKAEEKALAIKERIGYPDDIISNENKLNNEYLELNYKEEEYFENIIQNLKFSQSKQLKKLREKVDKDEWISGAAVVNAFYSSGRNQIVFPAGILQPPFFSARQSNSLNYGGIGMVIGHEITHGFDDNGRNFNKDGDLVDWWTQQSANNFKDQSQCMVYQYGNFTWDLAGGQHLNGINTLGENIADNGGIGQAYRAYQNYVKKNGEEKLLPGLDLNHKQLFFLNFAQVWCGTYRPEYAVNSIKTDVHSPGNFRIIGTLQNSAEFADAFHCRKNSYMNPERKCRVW
Test: NEP-inhibitory activity in rat kidney cortex membranes ([3H][Leu5]-enkephaline degradation)
Conditions: in vitro, [3H][Leu5]-enkephaline 15 nM, 20 minutes at 30° C., pH 7.4
Method: a) NEP-inhibitory Activity The NEP-inhibitory activity was evaluated in rat kidney cortex membranes prepared according to the procedure described by T. Maeda et al. in Biochim Biophys. Acta 1983, 731(1), 115-120. Kidneys were removed from male Sprague-Dawley rats weighing approximately 300 g and kept at 4° C. […] The NEP-inhibitory activity was evaluated according to the method described by C. […]
pIC50: −log10 of the molar value.
endpointName: pIC50

Q: Quick one: pIC50 for O=C(N[C@@H](Cc1ccccn1)C(=O)O)C(CS)Cc1ccccc1 (stereo partly drawn) [compound 6] ?
Result: 8.15

Q: Please answer likewise for O=C(N[C@@H](Cc1cscn1)C(=O)O)C(CS)Cc1ccccc1 (stereo partly drawn) [compound 4]
Result: 8.33

Q: Moving on to the next compound: O=C(N[C@@H](Cc1cccs1)C(=O)O)C(CS)Cc1ccccc1 (stereo partly drawn) [compound 5]
Result: 8.26
